- Target system: Cytochrome P450 2C9 (Homo sapiens)
- Test protocol: Cytochrome panel assay with activity outcomes; further: on the % scale 0 is the no-effect control and ±100 the full control effect
- Setup conditions: recombinant CYP, pro-luciferin dealkylation, luminescence, p450-cyp2c9; series mostly up to 57.1 µM
Among all 16,000 compounds or so, about 4,000 (25%) were called active. Roughly 26% stayed inconclusive and do not appear here. Only a sample is shown.
Reported endpoint: activity, negative = inhibition

- Smiles record: "O=C(O)c1cc(N=Nc2ccc([As](=O)(O)O)cc2)ccc1O"
  Result value: "11.3% [at 11.4 µM] (inactive)"
- Smiles record: "C=C1[C@@H]2C[C@@]3([C@H]1O)[C@H]1C[C@@H]4[C@@]5(C)CC[C@H](O)[C@]4([C@H]1N(CC)C5)[C@H]3C[C@H]2O"
  Result value: "inactive"
- Smiles record: "C=C1CC[C@H](O)C/C1=C/C=C1\\CCC[C@]2(C)[C@H]1CC[C@H]2[C@@H](C)CCCC(C)C"
  Result value: "inactive"
- Smiles record: "CCN(CC)C(=O)N[C@@H]1C[C@H]2c3cccc4[nH]cc(c34)C[C@@H]2N(C)C1"
  Result value: "inactive"
